Record type: MIC measurement. Applies to: C. albicans 2005E

| compound | MIC |
| --- | --- |
| COC1CC(OCC23CC4C(C)CCC4C4(C=O)CC2C=C(C(C)C)C43C(=O)O)OC(C)C1OC (stereo not shown) | ≤ 1 ng/mL |
| CCCOC1CC(OCC23CC4C(C)CCC4C4(C=O)CC2C=C(C(C)C)C43C(=O)O)OC(C)C1OC (stereo not shown) | ≤ 1 ng/mL |
| COC1C(C)OC(OCC23CC4C(C)CCC4C4(C=O)CC2C=C(C(C)C)C43C(=O)O)C(O)C1SC (stereo not shown) | 250 ng/mL |
| CC(=O)OC1C(C)OC(OCC23CC4C(C)CCC4C4(C=O)CC2C=C(C(C)C)C43C(=O)O)CC1SC(C)=O (stereo not shown) | ≤ 1 ng/mL |
